Cited source for all entries: paper PMC9096233

So I've got a bunch of compounds here, and I need their MIC values.
Tested on: Burkholderia cepacia J2315
method: MIC by standard broth dilution
Format: cell-based
experimental-setup: Table S1

Here are 2 compounds together with their reported answers.
compound: CC(=O)OC[C@H]1O[C@@H]([S-])[C@H](OC(C)=O)[C@@H](OC(C)=O)[C@@H]1OC(C)=O.CCP(CC)CC.[Au+] [Au9, auranofin]
measured-value: >100 µM
--
compound: CC1(C)S[C@@H]2[C@H](NC(=O)C(C(=O)O)c3ccccc3)C(=O)N2[C@H]1C(=O)O (stereo partly shown) [Carbenicillin]
measured-value: > 100 µM

Here are 2 compounds. What values of MIC were reported for them?
1. O=C(O)c1cn(C2CC2)c2cc(N3CCNCC3)c(F)cc2c1=O [Ciprofloxacin, ciprofloxacin]
2. NC[C@H]1O[C@H](O[C@H]2[C@H](O)[C@@H](O[C@H]3O[C@H](CO)[C@@H](O)[C@H](N)[C@H]3O)[C@H](N)C[C@@H]2N)[C@H](N)C[C@@H]1O [Tobramycin, tobramycin]

OUTPUT:
1. 25 µM
2. > 100 µM

---

Tested on: lung carcinoma A549 cell
method: MTT cytotoxicity assay
Assay type: cell-based, Human
experimental-setup: 48 h
endpoint-name: IC50 (nM)
Answers are plain numbers, in nM.

INPUT: Provide IC50, recorded with lung carcinoma A549 cell, of `CC(=O)OC[C@H]1O[C@@H]([S-])[C@H](OC(C)=O)[C@@H](OC(C)=O)[C@@H]1OC(C)=O.CCP(CC)CC.[Au+]`
OUTPUT: 2800
